B1: ZNF207 (parent)
chain: FPSAGQAQAAVQGPVGTDFKPLNS

# Variants of: B1
# assay details: protein stability index of a GFP-peptide fusion (GPS, HEK-293T) (PSI 1-6); higher = more stable;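 further: lentivirally expressed fusions sorted by FACS into six bins by GFP to DsRed ratio, PSI derived from sequencing read proportions per bin multiplied by bin number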
# test settings: c terminus: a fixed tail appended
reported metric: protein stability index
// keep it numeric: no unit symbol after the value

Exam item: Please give the measured protein stability index for this variant: FPSAGQAQAAVQGPMGTDFKPLNS [V15M]
Marked response: 3.01

Exam item: For FPSAGNAQAAVQGPVGTDFKPLNS [Q6N] , what is its reported protein stability index?
Marked response: 3.62

Exam item: Data request, read-out protein stability index, for FPSAGQAQAAVQGPVGTDFKPLNQ [S24Q]
Marked response: 3.43

Exam item: protein stability index lookup needed for FPSAGQAQAAVQGHVGTDFKPLNS [P14H] , thanks.
Marked response: 3.71

Exam item: Consider the variant shown here: MPSAGQAQAAVQGPVGTDFKPLNS [F1M] What is its recorded protein stability index?
Marked response: 4.96

Exam item: For FPSAGQAQAAVQMPVGTDFKPLNS [G13M] , what is its reported protein stability index?
Marked response: 3.38

Exam item: Which protein stability index value belongs to FPSAHQAQAAVQGPVGTDFKPLNS [G5H] ?
Marked response: 3.79

Exam item: Quick check: protein stability index of FPSAGQAQAIVQGPVGTDFKPLNS [A10I] ?
Marked response: 3.22

Exam item: # query: protein stability index of entry FPSAGQAQAAVQGPSGTDFKPLNS [V15S]
Marked response: 3.84

Exam item: # protein stability index lookup, item FVSAGQAQAAVQGPVGTDFKPLNS [P2V]
Marked response: 1.97

Exam item: State the recorded protein stability index for this entry: FPSAGQAQAAVQGPVGTDFKMLNS [P21M]
Marked response: 3.36

Exam item: I would be grateful if you could share the reported protein stability index for FPSAGQAQAAVQGPVGRDFKPLNS [T17R] .
Marked response: 3.19

Exam item: // query protein stability index value for entry FPSAGQAQAAIQGPVGTDFKPLNS [V11I]
Marked response: 3.25

Exam item: Find the recorded protein stability index belonging to FPSAGQAQAAVQGPVETDFKPLNS [G16E] and report it.
Marked response: 3.94

Exam item: Reported protein stability index, variant FPSAGQAQAAVQGPVGTDFKPLNF [S24F] : ____
Marked response: 2.63

Exam item: Sample FMSAGQAQAAVQGPVGTDFKPLNS [P2M] — what was its protein stability index?
Marked response: 3.93

Exam item: Endpoint output: protein stability index of FPSAGQAQAAVQGPVGTDNKPLNS [F19N] . Value?
Marked response: 4.33

Exam item: What measured protein stability index goes with FPSAGQAQAATQGPVGTDFKPLNS [V11T] ?
Marked response: 3.58

Exam item: Could you tell me which protein stability index is on file for FPSAGQAQAAVQGPVGTDFFPLNS [K20F] ?
Marked response: 2.35

Exam item: Given FPSAMQAQAAVQGPVGTDFKPLNS [G5M] , state its recorded protein stability index.
Marked response: 3.01

Exam item: Any idea what protein stability index was measured for FPSAGQAQMAVQGPVGTDFKPLNS [A9M] ?
Marked response: 3.06

Exam item: Param item = FPSAGQAQAAVQGPVGTDFKPLNY [S24Y] ; retrieve measured protein stability index.
Marked response: 2.63

Exam item: GET /values?readout=protein stability index&item= FPSAGQAQAAVQGCVGTDFKPLNS [P14C]
Marked response: 3.04

Exam item: Item FPSAGQAQALVQGPVGTDFKPLNS [A10L] has what recorded protein stability index?
Marked response: 3.18

Exam item: Need protein stability index of FQSAGQAQAAVQGPVGTDFKPLNS [P2Q] , thanks.
Marked response: 3.81

Exam item: Sample FPSDGQAQAAVQGPVGTDFKPLNS [A4D] — what was its protein stability index?
Marked response: 4.68

Exam item: May I ask what protein stability index has been recorded for FPSAGQASAAVQGPVGTDFKPLNS [Q8S] ?
Marked response: 3.68

Exam item: I'd like to know its protein stability index. The variant in question is FPSAGQAQAAVQGPVGTDFKPLNN [S24N]
Marked response: 3.92

Exam item: What measured protein stability index goes with FPSARQAQAAVQGPVGTDFKPLNS [G5R] ?
Marked response: 3.78

Exam item: Which protein stability index value is on record for FSSAGQAQAAVQGPVGTDFKPLNS [P2S] ?
Marked response: 3.16

Exam item: Need protein stability index, item FPSAGQAQAWVQGPVGTDFKPLNS [A10W]
Marked response: 2.24

Exam item: Entry FPSAGQAQAAVQGPCGTDFKPLNS [V15C] : reported protein stability index = ?
Marked response: 3.16

Exam item: Record request: protein stability index value, item FPSAGQAQAAVQGPVGTDFKLLNS [P21L]
Marked response: 2.51

Exam item: Which protein stability index value belongs to FPSAGQAQAAVQGPVGTDDKPLNS [F19D] ?
Marked response: 4.4

Exam item: Endpoint output: protein stability index of FPSAGQAQYAVQGPVGTDFKPLNS [A9Y] . Value?
Marked response: 2.13

Exam item: Can you look up the measured protein stability index of FPSAGQAQAAVQGPVGTDFKPLTS [N23T] for me?
Marked response: 3.45

Exam item: Item FPSAGQAQAAVQGPVGTDFKALNS [P21A] has what recorded protein stability index?
Marked response: 3.59

Exam item: Using the record for FPSAGQAQAAVQGPVGTDWKPLNS [F19W] , report its protein stability index.
Marked response: 3.41

Exam item: // lookup protein stability index for FPSAGQAQAAPQGPVGTDFKPLNS [V11P]
Marked response: 3.62

Exam item: // lookup protein stability index for FPSAGQALAAVQGPVGTDFKPLNS [Q8L]
Marked response: 2.11

Exam item: Find the recorded protein stability index belonging to FESAGQAQAAVQGPVGTDFKPLNS [P2E] and report it.
Marked response: 4.71

Exam item: What does the record list as protein stability index for FPSAGQAQAAVQGPVGGDFKPLNS [T17G] ?
Marked response: 3.78

Exam item: What does the record list as protein stability index for FPSAGQAQAAVQGPVGTDFKPLCS [N23C] ?
Marked response: 3.37

Exam item: May I ask what protein stability index has been recorded for FPSAGQAQAAVQGPVGTDFKPLNV [S24V] ?
Marked response: 3.19

Exam item: Requested read-out: protein stability index. Entry: FPSAGQAQAAVQGPGGTDFKPLNS [V15G]
Marked response: 3.1

Exam item: Fill in the blank: the reported protein stability index of FPSAGQAQAAVQGPVGTDFKPTNS [L22T] is ____.
Marked response: 3.64

Exam item: Please give the measured protein stability index for this variant: FDSAGQAQAAVQGPVGTDFKPLNS [P2D]
Marked response: 4.73

Exam item: Look up protein stability index: FPSAGQAQAAVIGPVGTDFKPLNS [Q12I]
Marked response: 2.54

Exam item: What value of measured protein stability index is listed for FPSAGQAQAAVQGPVGTDFKPPNS [L22P] ?
Marked response: 3.63

Exam item: Can you share its protein stability index? I mean this variant: FPSAGQAQAAVQGPRGTDFKPLNS [V15R]
Marked response: 3.28

Exam item: Requested read-out: protein stability index. Entry: FPSAGQAQAAVQGPVGTSFKPLNS [D18S]
Marked response: 2.81

Exam item: Requested read-out: protein stability index. Entry: FPSAGQAQAAVQGPVGTDFKPMNS [L22M]
Marked response: 3.69

Exam item: Query (variant): FPSAGQAQAAVQGPVGTDFKPKNS [L22K] ; field requested: protein stability index
Marked response: 3.58

Exam item: Request the reported protein stability index associated with FPSAWQAQAAVQGPVGTDFKPLNS [G5W]
Marked response: 1.66

Exam item: Suppose we examine the variant FPSAGQYQAAVQGPVGTDFKPLNS [A7Y] ; what protein stability index value has been reported?
Marked response: 1.65

Exam item: I have this variant here, FPSAGQAQAAVQGPVGTDFQPLNS [K20Q] , and I need its recorded protein stability index.
Marked response: 3.47

Exam item: I am curious: what protein stability index value has been reported for FPSAGQAQAYVQGPVGTDFKPLNS [A10Y] ?
Marked response: 2.95

Exam item: Return reported protein stability index; argument: FPSAGQAQAAVAGPVGTDFKPLNS [Q12A]
Marked response: 3.13

Exam item: // returns reported protein stability index for input FPSAGQAQAACQGPVGTDFKPLNS [V11C]
Marked response: 3.1

Exam item: What value of protein stability index has been recorded for this entry: FPSAGQAQAAVQNPVGTDFKPLNS [G13N]
Marked response: 3.58

Exam item: GET /values?readout=protein stability index&item= FPSAGQAQAAVQGPVGTDFKFLNS [P21F]
Marked response: 2.81

Exam item: Could you share which protein stability index value was measured for FPSAGQAQAAQQGPVGTDFKPLNS [V11Q] ?
Marked response: 3.72

Exam item: Which protein stability index is reported for this variant? FPSAGQAHAAVQGPVGTDFKPLNS [Q8H]
Marked response: 3.35

Exam item: Given FPSAAQAQAAVQGPVGTDFKPLNS [G5A] , state its recorded protein stability index.
Marked response: 2.44

Exam item: Given the variant FPSAGQAQAAVQSPVGTDFKPLNS [G13S] , what is its reported protein stability index?
Marked response: 3.69

Exam item: Value lookup for protein stability index; key = FPSAGQAQAAVQGWVGTDFKPLNS [P14W]
Marked response: 1.97

Exam item: May I ask what protein stability index has been recorded for FPSSGQAQAAVQGPVGTDFKPLNS [A4S] ?
Marked response: 3.27

Exam item: What does the data say about its protein stability index? Entry: FPSAGQAQAAVQGPHGTDFKPLNS [V15H]
Marked response: 3.29

Exam item: Would you mind telling me what protein stability index value was observed for FPSAGQAQAAVQGPVTTDFKPLNS [G16T] ?
Marked response: 3.64

Exam item: Item under review: WPSAGQAQAAVQGPVGTDFKPLNS [F1W] . Reported protein stability index?
Marked response: 4.75

Exam item: What value of protein stability index has been recorded for this entry: FPSAGQMQAAVQGPVGTDFKPLNS [A7M]
Marked response: 2.93

Exam item: Query: protein stability index; subject: FPSAIQAQAAVQGPVGTDFKPLNS [G5I]
Marked response: 4.11

Exam item: // query protein stability index value for entry FPSAGQAQAAVQGPVGTDFKPYNS [L22Y]
Marked response: 3.61

Exam item: Quick check: protein stability index of FPSAGQAQAAVQGPVGTDFKPLND [S24D] ?
Marked response: 4.02

Exam item: I would be grateful if you could share the reported protein stability index for FPSAGQAQAAVQGPWGTDFKPLNS [V15W] .
Marked response: 1.75

Exam item: Fill in: protein stability index of FPSAGQAQAAVQGPYGTDFKPLNS [V15Y] is ___
Marked response: 2.93

Exam item: Need protein stability index, item FPSAGQAQAAVQGPVGTDSKPLNS [F19S]
Marked response: 4.03

Exam item: # protein stability index lookup, item FPSAGQAQAAAQGPVGTDFKPLNS [V11A]
Marked response: 3.73

Exam item: Query (variant): FPSASQAQAAVQGPVGTDFKPLNS [G5S] ; field requested: protein stability index
Marked response: 3.3

Exam item: Please report the recorded protein stability index for FPSAGQAQAAVQGPVGTDFKPLNA [S24A] .
Marked response: 3.36

Exam item: Tell me the measured protein stability index of FPSAGQACAAVQGPVGTDFKPLNS [Q8C] , please.
Marked response: 3.23

Exam item: So what does the record say about protein stability index for FPSAGQAQAAVQGPVWTDFKPLNS [G16W] ?
Marked response: 2.3

Exam item: Item FPSAGQAQAALQGPVGTDFKPLNS [V11L] has what recorded protein stability index?
Marked response: 3.07

Exam item: Item FPSAGQVQAAVQGPVGTDFKPLNS [A7V] has what recorded protein stability index?
Marked response: 3.36

Exam item: Please report the recorded protein stability index for IPSAGQAQAAVQGPVGTDFKPLNS [F1I] .
Marked response: 4.79

Exam item: # lookup: protein stability index of FPSAGQAQAAGQGPVGTDFKPLNS [V11G]
Marked response: 3.72

Exam item: Reported protein stability index, variant FPSAGQAQATVQGPVGTDFKPLNS [A10T] : ____
Marked response: 3.41

Exam item: I have this variant here, FPSAGQAQAAVQGPVGTDFKPLKS [N23K] , and I need its recorded protein stability index.
Marked response: 3.48

Exam item: Item HPSAGQAQAAVQGPVGTDFKPLNS [F1H] has what recorded protein stability index?
Marked response: 4.89

Exam item: # input variant: FPSAGQAQAAVQGPVGQDFKPLNS [T17Q] ; wanted: its protein stability index
Marked response: 4.12

Exam item: # get_value(readout='protein stability index', item= FPSAGTAQAAVQGPVGTDFKPLNS [Q6T] )
Marked response: 3.96

Source listed as the supplement of paper PMC10567573.
